test: in vivo; conditions: male, cynomolgus monkey, iv, 3 ug/kg, t ½
Where a SMILES comes first, the peptide text is derived from it. [ ]: non-standard residue; d: D form. pGlu = O=C1CC[C@@H](C(=O)O)N1
readout: half-life (min)
Numbers only; they are read as min.

Q) Query (compound): CC(C)C[C@H](NC(=O)[C@H](Cc1c[nH]c2ccccc12)NC(=O)CNC(=O)[C@H](Cc1ccc(O)cc1)NC(=O)[C@H](C)NC(=O)[C@H](CCC(=O)O)NC(=O)[C@H](CCC(=O)O)NC(=O)[C@H](CCC(=O)O)NC(=O)[C@H](CCC(=O)O)NC(=O)[C@H](CCC(=O)O)NC(=O)[C@H](CC(C)C)NC(=O)[C@H](Cc1c[nH]c2ccccc12)NC(=O)[C@@H]1CCCN1C(=O)CNC(=O)[C@@H]1CCC(=O)N1)C(=O)N[C@@H](CC(=O)O)C(=O)N[C@@H](Cc1ccccc1)C(N)=O [Compound B] ([pGlu]GPWLEEEEEAYGWLDF-NH2) ; field requested: half-life
A) 5

All values here come from patent US20040229810A1.
